These entries and their values trace back to patent US20250034594A1.

Below, each entry is listed with its recorded Cas9 with SSAP activity (normalized).
Tested on: gene editing with Cas9
Experiment: Screen of 322 new SSAP proteins, gene editing activity with Cas9 (Table 5)
Assay type: cell-based
Conditions: normalized
METRIC: Cas9 with SSAP activity (normalized)

# MOLECULE, METRIC, RESULT
data = [
    ("SSAP_3: SEQ ID NO: 167; RecT Escherichia coli (protein) MTKQPPIAKADLQKTQGNRAPAAVKNSDVISFINQPSMKEQLAAALPRHMTAERMIRIATTEIRKVPALGNCDTMSFVSAIVQCSQLGLEPGSALGHAYLLPFGNKNEKSGKKNVQLIIGYRGMIDLARRSGQIASLSARVVREGDEFSFEFGLDEKLIHRPGENEDAPVTHVYAVARLKDGGTQFEVMTRKQIELVRSLSKAGNNGPWVTHWEEMAKKTAIRRLFKYLPVSIEIQRAVSMDEKEPLTIDPADSSVLTGEYSVIDNSEE", "Cas9 with SSAP activity (normalized)", "−0.788"),
    ("SSAP_2: SEQ ID NO: 173 (protein) ATNESLKNQLTTKKETGLGSAGNTIKGLMNSPAIKKRFEEVLKQRAPQYMSSIVNLVNSDINLKKCDQMSVVASCMVAATLDLPVDKNLGYAWVVPYGNKAQFQLGYKGYVQLALRTGQYKSINVIEIHEGELIDWNPLTEELKIDFSKKESDAVIGYAGYFELLNGFKKSTYWTKEQITKHKNKFSKSDFGWKKDFDAMARKTVLRNMLSKWGILSIEMQNAYTADQGIIKNEIMETGEVKENIEYIEADFESYEDNSIEEGGANE", "Cas9 with SSAP activity (normalized)", "−1.250"),
    ("SSAP_313: SEQ ID NO: 482; Pedobacter nototheniae (protein, listed as Pedobacter nototheniae) STEQSQQQTAARVPAKFQEGTVDSILKRVSDFQNTGELVLPANYIPENAVRAAWLMLMETTDRNDKPAIEVCTKESIANAFLEMVTKGLSVVKKQCYFVVYGNKLSLEDSYIGKIAIAKREAGVKEVNAVTIYEGDIFKYENDIETGRKRILEHKQELKNINPDKIVGA", "Cas9 with SSAP activity (normalized)", "−0.643"),
    ("SSAP_207: SEQ ID NO: 376; Mycobacterium sp. 1245499.0 (protein, listed as Mycobacterium sp.) TTQPEYKPVAQGADKQMTTGKLLKMLEPEIGRALPKGMDPDRICRLVMTEVRKNPMLTQCTQESFAGALLTASALGLEPGVNGEAWLVPYRDRKRGIVECQFIMGYNGVAKLFWQSPHADRLDAQLVCANDHFRYVKGLSPILEHVESDGDRGDPIAYYAIVGVKGAQPMWDVFKPEAIAQLRGGRVGTKGDIDDPQRWMERKTALKQVLKLAPKSTRLDLAIRADERSGSDLYKSQGMEVHAIEPGFIETEAEPETQEQ", "Cas9 with SSAP activity (normalized)", "−0.798"),
    ("SSAP_311: SEQ ID NO: 480; Paenibacillus graminis (protein, listed as Paenibacillus graminis) TVAIETQVQETLDRILDSKHDALPSDFKKKRFSENCKVYVAEEKDLHKYTIDDIVANLFKGAVLGLDFLAKECHLITGGVDLKFQTDYKGEMKLTKKYSVRPMLDVYAKNVREGDIFREQIIEGRPAIHFDPLPFNASKIIGSFAIALFQDGGMVYESIPAGEIEEIRKNYGKSLGDAWEKSQGEMYKRTVLRRLCKTIETDFDAEQRLIYEMGGAFEFTKQPTRSRQQSPFNPPEESEVIQNDRAAETDQG", "Cas9 with SSAP activity (normalized)", "−0.874"),
    ("SSAP_293: SEQ ID NO: 462; Brevibacillus porteri (protein, Brevibacillus porter, Brevibacillus porteri) ADQNKLVVIYNNLEKLLDSKREAMPTSFNKTRFLQNCMTVLQETKDIELCNPTTVARTMLKGAFLGLDFFNKECYAVVYKGSVEFQTDYKGEVKLAKKYSTKPVREVYAKLVREGDEFAEEINSGNQTINFRPKPFNNEEILGAFAVVNYMDGTMAYDIMSKEEIEKIKENFSRKSKQTGEYSKAWVVTPGEMYKKTVLRRLCKNIDLDFDTIEQRQAFEDAGDVDFNQEVKPAQQSPLNSTVIEAEFEEVSEEQTNAAEQE", "Cas9 with SSAP activity (normalized)", "−0.961"),
    ("SSAP_65: SEQ ID NO: 234 (protein) TQDLATAIADQQPAQRRTAFDLVESMRGELHKALPEHASIDNFLRLALTELKMNPQLGNCSGESLLGALMTAARVGLEVGGPLGQFYLTPRRLKRDGWAVVPIVGYRGLITLARRAGVGQVNAVVVHEGDTFREGASSERGFFFDWEPAVERGKPVGALAAARLAGGDVQHRYLSLAEVHERRDRGGFKDGSNSPWATDYDAMVRKTALRALVPLLPQSTALSFAVQADEQVQRYDAGDIDIPALDETDTEDTK", "Cas9 with SSAP activity (normalized)", 0.190),
    ("SSAP_297: SEQ ID NO: 466; Dysgonomonas capnocytophagoides (protein, Dysgonomonas capnocytophagoides) STQQVQQQTKPLSLANFLNAPSTANFLKETLAEKKSEFVSNLIALCDADPKLAQCDPAQLMKCAMNATSLNLPLNKNLGYAYVIAYKGVPSFQIGYKGLIQLAIRTGQYKFINATEIREGEIRHNKITGEVIFNGEKPDAPIVGYMSYLELVNGFTASLYMTEEQIEQHALRFSQTYKNDKQYRSSTSKWSDPLARPTMCKKTVLKLLLGTYGLMTTEFAKALDSDSDDEVSTSGHRFEEAEIVQQGEPNEEQSDEPKRMEI", "Cas9 with SSAP activity (normalized)", "−1.014"),
]
